Reference source for all entries: ChEMBL document CHEMBL5375953

Assay: AUC(infinity) in dog at 2 mg/kg,po administration measured after 24 hrs by LC-MS/MS analysis
Format: ADME, organism-based, Canis lupus familiaris
Set-up: dose 2 mg/kg, time 24 hrs, route po
Settings: in vivo
quantity.name: AUC(0-inf) (ng·h/mL)
Report the value in ng·h/mL with no unit label.

Value of AUC(0-inf) reported for the molecule CCS(=O)(=O)c1ccc(CC(=O)Nc2cc(Cl)c(-c3ccc(OC(C)C)c(C#N)c3)c(Cl)c2)cc1 is 33000

###

Test: Metabolic Stability in mouse liver microsome assessed as half life at […] measured upto 60 mins by HPLC-MS/MS analysis
Assay type: ADME
Details: liver microsomes
quantity.name: half-life (min)
Hi! Could you send only the number? It should be in min, unit omitted.

INSERT INTO assay_data (compound, quantity_name, value_reported) VALUES
  ('CCS(=O)(=O)c1ccc(CC(=O)Nc2cc(Cl)c(-c3ccc(CC(C)C)c(C#N)c3)c(Cl)c2)cc1', 'half-life', 37.7);

What the record says about CCC(C)Cc1ccc(-c2c(Cl)cc(NC(=O)Cc3ccc(S(=O)(=O)CC)cc3)cc2Cl)cc1C#N (configuration not stated) : half-life is 78.5

Data point: CCS(=O)(=O)c1ccc(CC(=O)Nc2cc(Cl)c(-c3ccc(CN(C)C)c(C#N)c3)c(Cl)c2)cc1 ; half-life = 12.9

Record summary for CCS(=O)(=O)c1ccc(CNC(=O)c2cc(Cl)c(-c3ccc(CC(C)C)c(C#N)c3)c(Cl)c2)cc1 : reported half-life = 28

For record CCS(=O)(=O)c1ccc(CC(=O)Nc2cc(Cl)c(-c3ccc(CC(C)C)c(C#N)c3)c(Cl)c2)nc1 the listed half-life is 37.4

Reported half-life for CCS(=O)(=O)c1ccc(CNC(=O)Nc2cc(Cl)c(-c3ccc(CC(C)C)c(C#N)c3)c(Cl)c2)cc1 was 50.6

###

Experiment: Metabolic Stability in human liver microsome assessed as half life at […] measured upto 60 mins by HPLC-MS/MS analysis
Type: ADME
Conditions: liver microsomes
Measured half-life by item

INSERT INTO results (compound, value_reported) VALUES
  ('CCS(=O)(=O)c1ccc(CNC(=O)Nc2cc(Cl)c(-c3ccc(CC(C)C)c(C#N)c3)c(Cl)c2)cc1', '3.9 min'),
  ('CCS(=O)(=O)c1ccc(CC(=O)Nc2cc(Cl)c(-c3ccc(CC(C)C)c(C#N)c3)c(Cl)c2)cc1', '2.6 min'),
  ('CCS(=O)(=O)c1ccc(CC(=O)Nc2cc(Cl)c(-c3ccc(OC(C)C)c(C#N)c3)c(Cl)c2)cc1', '> 145 min'),
  ('CCC(C)Cc1ccc(-c2c(Cl)cc(NC(=O)Cc3ccc(S(=O)(=O)CC)cc3)cc2Cl)cc1C#N (stereo unspecified)', '16.9 min');

The recorded half-life for CCS(=O)(=O)c1ccc(CC(=O)Nc2cc(Cl)c(-c3ccc(CC(C)C)c(C#N)c3)c(Cl)c2)nc1 is 9.3 min

The compound CCS(=O)(=O)c1ccc(CNC(=O)c2cc(Cl)c(-c3ccc(CC(C)C)c(C#N)c3)c(Cl)c2)cc1 showed half-life equal to < 2.5 min
